target: T1, full length human tau protein 2N4R (hT40) (human, UniProt P10636 1-758); test: SPR, scAb captured, tau analyte
T1 construct: recombinant; also called T441
T1 sequence (P10636 other isoform, or with tags, fused parts or gaps limits assumed): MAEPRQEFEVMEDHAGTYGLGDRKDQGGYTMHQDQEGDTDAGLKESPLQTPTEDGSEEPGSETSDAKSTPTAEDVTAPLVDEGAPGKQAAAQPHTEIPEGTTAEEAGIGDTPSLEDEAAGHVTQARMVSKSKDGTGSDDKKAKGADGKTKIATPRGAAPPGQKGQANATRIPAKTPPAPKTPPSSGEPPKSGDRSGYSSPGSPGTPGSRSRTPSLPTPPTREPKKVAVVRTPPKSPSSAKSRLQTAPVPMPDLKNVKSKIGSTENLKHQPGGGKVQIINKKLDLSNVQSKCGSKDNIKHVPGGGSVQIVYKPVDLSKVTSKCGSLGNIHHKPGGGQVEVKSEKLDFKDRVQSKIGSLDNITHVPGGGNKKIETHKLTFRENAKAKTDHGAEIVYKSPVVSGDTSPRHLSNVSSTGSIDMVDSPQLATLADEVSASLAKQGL
TEST_READOUT: pKd
Schema: pKd number; meaning minus log10 of the concentration expressed in molar units.

The binder NS2A1 scAb (scFv, not shown: small tags and cut ends, scAb) scFv: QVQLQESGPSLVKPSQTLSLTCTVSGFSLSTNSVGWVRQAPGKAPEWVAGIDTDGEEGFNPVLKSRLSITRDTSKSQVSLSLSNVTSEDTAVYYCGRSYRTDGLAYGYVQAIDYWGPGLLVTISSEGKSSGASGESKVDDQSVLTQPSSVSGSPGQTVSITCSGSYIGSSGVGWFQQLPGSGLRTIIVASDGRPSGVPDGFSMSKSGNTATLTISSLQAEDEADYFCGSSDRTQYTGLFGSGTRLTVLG showed pKd equal to 8.54

The binder 412E10 scAb (scFv, not shown: small tags and cut ends, scAb) scFv: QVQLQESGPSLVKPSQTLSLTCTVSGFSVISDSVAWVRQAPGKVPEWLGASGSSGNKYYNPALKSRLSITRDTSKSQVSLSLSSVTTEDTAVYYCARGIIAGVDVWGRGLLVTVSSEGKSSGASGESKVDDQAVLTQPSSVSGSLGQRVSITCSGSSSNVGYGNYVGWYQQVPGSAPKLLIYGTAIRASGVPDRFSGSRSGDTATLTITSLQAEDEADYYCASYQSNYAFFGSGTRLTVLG showed pKd equal to 8.50

The binder CA4 scAb (scFv, not shown: small tags and cut ends, scAb) scFv: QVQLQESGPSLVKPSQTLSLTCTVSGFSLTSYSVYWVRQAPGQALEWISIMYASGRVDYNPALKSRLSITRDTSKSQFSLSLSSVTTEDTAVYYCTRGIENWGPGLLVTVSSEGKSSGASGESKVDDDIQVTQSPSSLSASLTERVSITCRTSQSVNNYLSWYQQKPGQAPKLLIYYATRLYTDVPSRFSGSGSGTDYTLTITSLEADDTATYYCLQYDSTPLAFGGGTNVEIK showed pKd equal to 8.44

The binder 3bG4 scAb (scFv, not shown: small tags and cut ends, scAb) scFv: QVQLQESGPSLVKPSQTLSLTCTISGFSLISNGVGWVRQAPGKVPEWVGDIASSGKAYSNPALKSRLSITRDTSKSQVSLSLRSVTTEDTAVYYCVRCRDGGVTYGYDIDYWGPGLLVTVSSEGKSSGASGESKVDDQAVLTQPSSVSKSLGQSVSITCSGSTSNVGSGNDVSWFQQVPGSAPKLLFYGATNRASGVPDRFSGSRSGNTATLTITSLQAEDEADYYCGSYDSNSGGIFGSGTRLTVLG showed pKd equal to 8.05

The binder CB7 scAb (scFv, not shown: small tags and cut ends, scAb) scFv: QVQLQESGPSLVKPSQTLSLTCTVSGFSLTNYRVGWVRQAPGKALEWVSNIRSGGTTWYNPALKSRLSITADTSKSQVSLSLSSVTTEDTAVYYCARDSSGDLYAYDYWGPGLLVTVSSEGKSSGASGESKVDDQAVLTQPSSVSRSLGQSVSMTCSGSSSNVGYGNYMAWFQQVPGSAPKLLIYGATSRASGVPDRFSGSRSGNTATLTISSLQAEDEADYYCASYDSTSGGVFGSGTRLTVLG showed pKd equal to 8.28
